Recorded values, source patent US20250163164A1.

TEST TARGET: T1, human interleukin 13 receptor subunit alpha 2 (IL-13RA2) (human, UniProt Q14627 27-380)
T1 construct: whole, on cells; also called IL-13Rα2; CD213A2
T1 sequence (looked up): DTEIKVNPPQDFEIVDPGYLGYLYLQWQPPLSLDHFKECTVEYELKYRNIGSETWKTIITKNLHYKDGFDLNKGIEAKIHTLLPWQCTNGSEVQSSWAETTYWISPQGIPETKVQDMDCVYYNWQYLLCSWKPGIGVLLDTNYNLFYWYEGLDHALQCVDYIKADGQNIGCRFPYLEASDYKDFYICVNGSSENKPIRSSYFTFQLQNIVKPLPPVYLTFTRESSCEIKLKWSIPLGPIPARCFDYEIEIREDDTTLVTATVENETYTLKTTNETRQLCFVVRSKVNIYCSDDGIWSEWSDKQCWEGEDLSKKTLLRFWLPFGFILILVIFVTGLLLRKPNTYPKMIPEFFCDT
ASSAY PROTOCOL: FACS on A375 cells
ENDPOINT: Top (MFI)
# number then unit; no other words

| BINDER | VALUE |
| --- | --- |
| 72B4H4 H4L4 hIgG1 (antibody, V domains shown, humanized, hIgG1) VH: QVQLVQSGAEVVKPGASVKLSCKASGYTFTNYWMNWVKQRPGQGLEWIGRIDAYAGETHYNQKFKDRAILTVDKSTSTAYMELRSLRSEDTAVYYCARGYGDAYGMDHWGQGTLVTVSS VL: DIVLTQSPSSLSASVGDRATITCRASESVDNYGISFMNWFQQKPGKPPKLLIYAASRQGSGDPARFSGSGSGTDFTLTISSLQPEDFATYFCQQSKEVPWTFGGGTKLEIK | 8180 MFI |

Alright, here's another binder for you.
Query string: Quick one: give measured Top (MFI) for 72B4H4 H4L1 hIgG1 (antibody, V domains shown, humanized, hIgG1) VH: QVQLVQSGAEVVKPGASVKLSCKASGYTFTNYWMNWVKQRPGQGLEWIGRIDAYAGETHYNQKFKDRAILTVDKSTSTAYMELRSLRSEDTAVYYCARGYGDAYGMDHWGQGTLVTVSS VL: DIQMTQSPSSLSASVGDRVTITCRASESVDNYGISFMNWYQQKPGKAPKLLIYAASRQGSGVPSRFSGSGSGTDFTLTISSLQPEDFATYYCQQSKEVPWTFGQGTKVEIK
Result string: 8270 MFI
